tested on: DMS 273 small cell lung; test: NCI tumour cell line growth inhibition, 48 h
Reported Endpoint: TGI

Some solved cases for reference:
{"Molecule": "COC1=CC(=O)C2C(C1=O)C(c1ccc(OC)c(OC)c1)[C@H]2C (some centres not stated)", "Result": "60.3 µM"}
{"Molecule": "CCN(CC)CCCNc1ncc(C)c2c1c1ccc3c(O)cccc3c1n2C", "Result": "2.14 µM"}
{"Molecule": "Cn1sc2ccccc2c1=S", "Result": "17.6 µM"}
{"Molecule": "O=C1NC2C(CCO)CC=C[C@H]2c2cc3c(cc21)OCO3 (some centres not stated)", "Result": "> 100 µM"}
{"Molecule": "COc1ccccc1NC(=O)C(CC(C(=O)Nc1ccccc1OC)/C(C)=N/NC(=O)c1ccccc1O)/C(C)=N/NC(=O)c1ccccc1O (configuration not stated)", "Result": "> 100 µM"}

Shifting focus to the molecule that follows.
Query: Form field: reported TGI of COc1ccc(C2S/C(=C\c3ccccc3)C(=O)N2NC(=O)Cc2ccccc2)cc1 (configuration not stated)
Response: > 100 µM

====

system: ACHN renal; assay: NCI tumour cell line growth inhibition, 48 h
Reported Endpoint: TGI

Some solved cases for reference:
{"Compound": "C[N+](C)(CCO)CCN1c2ccccc2Sc2ccccc21", "TGI": "> 10 µM"}
{"Compound": "COc1ccc2c(c1)C(=O)c1c-2c(NCCN(C)C)nc2ccccc12", "TGI": "6.43 µM"}
{"Compound": "Cn1nc2ccccc2cc1=O", "TGI": "> 100 µM"}
{"Compound": "O=C(c1cccs1)N(Cc1cccnc1)C(=S)N(Cc1cccnc1)C(=O)c1cccs1", "TGI": "> 100 µM"}
{"Compound": "CC12C(=O)OC(=O)C1(C)C1C=CC2O1 (stereo not given)", "TGI": "> 100 µM"}
{"Compound": "CCn1c2ccccc2c2cc(NC(=O)c3c(NCCNCCO)nc(=O)[nH]c3C)ccc21", "TGI": "> 100 µM"}

Query: Form field: reported TGI of CCOC(=O)c1ccc(Nc2nc3cc(C(F)(F)F)ccc3nc2C(=O)OCC)cc1
Response: > 100 µM

Query: Form field: reported TGI of C[C@]12CCC(=O)C=C1CC[C@@H]1[C@@H]2[C@@H](O)C[C@@]2(C)[C@H]1CC[C@]2(O)C(=O)COC(=O)C1CCCC1
Response: > 100 µM

Query: Form field: reported TGI of O=C(O)CCSC(=S)Nc1ccc([N+](=O)[O-])cc1
Response: > 83 µM

Query: Form field: reported TGI of CCN(CC)CCCNc1ncc(C)c2c1c1ccc3c(O)cccc3c1n2C
Response: 12.8 µM

====

tested on: BT-549 breast; experiment: NCI tumour cell line growth inhibition, 48 h
Listing: GI50 of selected compounds

Some solved cases for reference:
{"Molecule Smiles": "Nc1ccc(-c2ccc(-c3nc4cc(Cl)c(Cl)cc4[nH]3)cc2)cc1", "GI50": "27.4 µM"}
{"Molecule Smiles": "CCN(CC)CC[n+]1cc2cc(OC)c(OC)cc2c2ccc3cc4c(cc3c21)OCO4", "GI50": "1.11 µM"}
{"Molecule Smiles": "CCOCCOC[C@H]1CCCN(c2ccnc3sc(C(N)=O)c(N)c23)C1", "GI50": "9.35 µM"}
{"Molecule Smiles": "COC1=C(OC)[C@]2(OC)c3c(O)c(OC)c4c(c3O[C@@]23O[C@@H](c2ccccc2)CC=C3C1=O)[C@@H](O)C[C@H](c1ccccc1)O4", "GI50": "0.394 µM"}
{"Molecule Smiles": "Cc1cc2nc(C(Cl)Cl)nc(-c3ccccc3)n2n1", "GI50": "17.4 µM"}

Query: Form field: reported GI50 of O=C(O)c1ccccc1Nc1ccc2nnc(-c3ccncc3)n2n1
Response: 2.59 µM

Query: Form field: reported GI50 of COc1ccc2nc(-c3cc4c([nH]c5ccccc54)c(-c4ccc(F)c(F)c4)n3)[nH]c2c1
Response: 6.3 µM
